Each record here notes measured IC50.
Assay System: recombinant human TOP2A (Homo sapiens, UniProt P11388)
Construct: Using recombinant full-length human TOP2A and TOP2B enzymes; YFP (N, cleaved yes); made in house; host or cells: HEK293F
Sequence (P11388 whole entry): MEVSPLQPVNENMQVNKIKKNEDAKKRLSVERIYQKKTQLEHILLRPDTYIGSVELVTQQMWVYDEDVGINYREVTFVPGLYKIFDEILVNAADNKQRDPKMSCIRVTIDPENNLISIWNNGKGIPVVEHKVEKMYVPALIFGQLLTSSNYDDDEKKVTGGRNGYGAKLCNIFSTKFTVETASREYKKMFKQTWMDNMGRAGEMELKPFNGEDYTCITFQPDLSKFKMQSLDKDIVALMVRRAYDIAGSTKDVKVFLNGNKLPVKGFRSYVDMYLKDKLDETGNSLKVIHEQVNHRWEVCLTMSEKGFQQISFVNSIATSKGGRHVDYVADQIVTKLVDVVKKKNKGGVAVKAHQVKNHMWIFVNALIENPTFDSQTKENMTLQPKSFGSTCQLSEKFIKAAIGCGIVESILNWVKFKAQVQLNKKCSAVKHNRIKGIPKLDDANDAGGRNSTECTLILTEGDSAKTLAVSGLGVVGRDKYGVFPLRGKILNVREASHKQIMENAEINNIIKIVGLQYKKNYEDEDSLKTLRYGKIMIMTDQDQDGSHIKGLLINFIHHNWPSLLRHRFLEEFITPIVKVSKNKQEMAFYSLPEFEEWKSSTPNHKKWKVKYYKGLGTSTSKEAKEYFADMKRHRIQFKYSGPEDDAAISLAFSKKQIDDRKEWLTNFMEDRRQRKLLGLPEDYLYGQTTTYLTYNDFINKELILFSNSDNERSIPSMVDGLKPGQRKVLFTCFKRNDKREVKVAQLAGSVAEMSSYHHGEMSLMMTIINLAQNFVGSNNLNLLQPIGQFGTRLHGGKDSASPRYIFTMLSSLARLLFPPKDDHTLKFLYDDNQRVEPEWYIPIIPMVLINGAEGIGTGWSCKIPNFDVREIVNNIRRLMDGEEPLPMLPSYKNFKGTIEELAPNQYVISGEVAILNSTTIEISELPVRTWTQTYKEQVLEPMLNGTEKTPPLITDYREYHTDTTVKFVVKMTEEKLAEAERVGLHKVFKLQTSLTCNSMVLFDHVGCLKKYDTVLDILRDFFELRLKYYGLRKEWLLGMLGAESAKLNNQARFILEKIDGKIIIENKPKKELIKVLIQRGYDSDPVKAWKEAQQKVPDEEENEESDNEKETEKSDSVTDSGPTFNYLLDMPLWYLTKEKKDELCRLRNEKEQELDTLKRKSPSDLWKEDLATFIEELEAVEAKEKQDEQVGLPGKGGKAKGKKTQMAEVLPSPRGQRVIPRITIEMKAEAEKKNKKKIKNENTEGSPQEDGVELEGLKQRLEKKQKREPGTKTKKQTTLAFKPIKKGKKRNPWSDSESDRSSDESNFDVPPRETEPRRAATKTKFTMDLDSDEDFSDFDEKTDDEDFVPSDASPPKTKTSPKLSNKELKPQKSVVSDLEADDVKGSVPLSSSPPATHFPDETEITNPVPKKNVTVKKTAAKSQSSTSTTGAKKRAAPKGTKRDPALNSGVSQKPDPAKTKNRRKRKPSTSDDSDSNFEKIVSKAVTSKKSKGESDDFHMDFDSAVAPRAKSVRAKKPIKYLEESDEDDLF
Assay: DNA decatenation assay, recombinant TOP2A
Format: biochemical
Condition Details: enzyme expressed in HEK293F, n=3

>  <Smiles Entry>
C[C@@H](CN1CC(=O)NC(=O)C1)N1CC(=O)NC(=O)C1

>  <IC50, µM>
3.35

$$$$
>  <Smiles Entry>
CCCc1cc(=O)oc2c(C(=O)N3CCCc4ccccc43)c(OCCN3CCN(C)CC3)ccc12

>  <IC50, µM>
4.8

$$$$
>  <Smiles Entry>
CCCc1cc(=O)oc2c(C(=O)N3CCCc4ccccc43)c(OC)cc(OC)c12

>  <IC50, µM>
6.51

$$$$
>  <Smiles Entry>
CCCc1cc(=O)oc2c(C(=O)N3CCCc4ccccc43)c(OCCO)ccc12

>  <IC50, µM>
3.21

$$$$

----------
System: neonatal rat ventricular cardiomyocytes (NVCM)
Assay: Protection against DAU-induced cytotoxicity (LDH release) in NVCM
Format: cell-based
Set-up: key: % of total LDH activity
Condition Details: compound 0.1 µM + DAU 1.2 µM
Description: The protective effects of the BNS-22 and newly prepared compounds were evaluated using primary cultures of neonatal rat cardiomyocytes isolated in house as previously described. […] The total LDH activity of each sample for normalization was measured after 1 h of incubation at 37 °C in lysis buffer (0.1 M potassium phosphate, 1% Triton X-100, 1 mM dithiothreitol (DTT), 2 mM EDTA, pH 7.8, 15 min in RT). […] The rate of NAD^+ reduction was monitored spectrophotometrically at 340 nm for 2 min. […]
Outcome Measure: Suppl.Fig.3 DAU-induced cytotoxicity (LDH release) in NVCM, mean of independent replicates

>  <Compound>
CCCCc1cc(=O)oc2c(C(=O)N3CCCc4ccccc43)c(OCCC)ccc12 [4d]

>  <Reading>
31.1377

$$$$
>  <Compound>
CCCOc1ccc2c(C)cc(=O)oc2c1C(=O)N1CCCc2ccccc21 [4a]

>  <Reading>
45.8753

$$$$
>  <Compound>
CCCCc1cc(=O)oc2c(C(=O)N3CCCc4ccccc43)c(OCCO)ccc12 [5d]

>  <Reading>
41.2776

$$$$
>  <Compound>
CCCc1cc(=O)oc2c(C(=O)N3CCCc4ccccc43)c(OC)ccc12 [3c]

>  <Reading>
33.8238

$$$$
>  <Compound>
CCCOc1ccc2c(CC)cc(=O)oc2c1C(=O)N1CCCc2ccccc21 [4b]

>  <Reading>
43.0735

$$$$
>  <Compound>
CCc1cc(=O)oc2c(C(=O)N3CCCc4ccccc43)c(OCCO)ccc12 [5b]

>  <Reading>
53.5677

$$$$
>  <Compound>
CCCOc1ccc2c(CCC)cc(=O)oc2c1C(=O)N1CCCc2ccccc21 [4c]

>  <Reading>
37.3488

$$$$
>  <Compound>
CCCCc1cc(=O)oc2c(C(=O)N3CCCc4ccccc43)c(OC)ccc12 [3d]

>  <Reading>
40.2805

$$$$
>  <Compound>
CCCCc1cc(=O)oc2c(C(=O)N3CCCc4ccccc43)c(OC)cc(OC)c12 [1d]

>  <Reading>
44.1431

$$$$
>  <Compound>
CCCc1cc(=O)oc2c(C(=O)N3CCCc4ccccc43)c(OC)cc(OC)c12 [BNS-22]

>  <Reading>
33.1153

$$$$
>  <Compound>
CCCc1cc(=O)oc2c(C(=O)N3CCCc4ccccc43)c(OCCO)ccc12 [5c]

>  <Reading>
37.9008

$$$$

----------
Assay: Plasma pharmacokinetics in rabbits (LC-MS/MS)
Assay type: in vivo, rabbit
Condition Details: rabbit, plasma, iv, 10 mg/kg, 10 mg/kg 20 min i.v. infusion; 5 min; individual subjects
Outcome Measure: concentration at 5 min

>  <Compound>
CCCc1cc(=O)oc2c(C(=O)N3CCCc4ccccc43)c(OCCN3CCN(C)CC3)ccc12 [topobexin (9)]

>  <Outcome Measure>
concentration at 5 min

>  <Reading>
11.1 µM

$$$$

----------
Test system: neonatal rat ventricular cardiomyocytes (NVCM)
Assay: Protection against DAU-induced cytotoxicity (LDH release) in NVCM
Format: cell-based
Set-up: key: % of total LDH activity
Condition Details: compound 30 µM + DAU 1.2 µM
Outcome Measure: Suppl.Fig.3 DAU-induced cytotoxicity (LDH release) in NVCM, mean of independent replicates

>  <Molecule>
Cc1cc(=O)oc2c(C(=O)N3CCCc4ccccc43)c(O)ccc12 [2a]

>  <Reading>
39.137

$$$$
>  <Molecule>
CCCCc1cc(=O)oc2c(C(=O)N3CCCc4ccccc43)c(OCCC)ccc12 [4d]

>  <Reading>
73.3675

$$$$
>  <Molecule>
CCCCc1cc(=O)oc2c(C(=O)N3CCCc4ccccc43)c(OC)cc(OC)c12 [1d]

>  <Reading>
74.3781

$$$$

----------
Assay: Plasma pharmacokinetics in rabbits (LC-MS/MS)
Format: in vivo, rabbit
Condition Details: rabbit, plasma, intravenous, 10 mg/kg, 600 min; individual subjects

>  <Smiles Entry>
CCCc1cc(=O)oc2c(C(=O)N3CCCc4ccccc43)c(OCCN3CCN(C)CC3)ccc12

>  <concentration at 600 min>
25 nM

$$$$

----------
Assay System: recombinant human TOP2B (Homo sapiens, UniProt Q02880)
Construct: Using recombinant full-length human TOP2A and TOP2B enzymes; YFP (N, cleaved yes); made in house; host or cells: HEK293F
Sequence (Q02880 1-1621 isoform Q02880-2): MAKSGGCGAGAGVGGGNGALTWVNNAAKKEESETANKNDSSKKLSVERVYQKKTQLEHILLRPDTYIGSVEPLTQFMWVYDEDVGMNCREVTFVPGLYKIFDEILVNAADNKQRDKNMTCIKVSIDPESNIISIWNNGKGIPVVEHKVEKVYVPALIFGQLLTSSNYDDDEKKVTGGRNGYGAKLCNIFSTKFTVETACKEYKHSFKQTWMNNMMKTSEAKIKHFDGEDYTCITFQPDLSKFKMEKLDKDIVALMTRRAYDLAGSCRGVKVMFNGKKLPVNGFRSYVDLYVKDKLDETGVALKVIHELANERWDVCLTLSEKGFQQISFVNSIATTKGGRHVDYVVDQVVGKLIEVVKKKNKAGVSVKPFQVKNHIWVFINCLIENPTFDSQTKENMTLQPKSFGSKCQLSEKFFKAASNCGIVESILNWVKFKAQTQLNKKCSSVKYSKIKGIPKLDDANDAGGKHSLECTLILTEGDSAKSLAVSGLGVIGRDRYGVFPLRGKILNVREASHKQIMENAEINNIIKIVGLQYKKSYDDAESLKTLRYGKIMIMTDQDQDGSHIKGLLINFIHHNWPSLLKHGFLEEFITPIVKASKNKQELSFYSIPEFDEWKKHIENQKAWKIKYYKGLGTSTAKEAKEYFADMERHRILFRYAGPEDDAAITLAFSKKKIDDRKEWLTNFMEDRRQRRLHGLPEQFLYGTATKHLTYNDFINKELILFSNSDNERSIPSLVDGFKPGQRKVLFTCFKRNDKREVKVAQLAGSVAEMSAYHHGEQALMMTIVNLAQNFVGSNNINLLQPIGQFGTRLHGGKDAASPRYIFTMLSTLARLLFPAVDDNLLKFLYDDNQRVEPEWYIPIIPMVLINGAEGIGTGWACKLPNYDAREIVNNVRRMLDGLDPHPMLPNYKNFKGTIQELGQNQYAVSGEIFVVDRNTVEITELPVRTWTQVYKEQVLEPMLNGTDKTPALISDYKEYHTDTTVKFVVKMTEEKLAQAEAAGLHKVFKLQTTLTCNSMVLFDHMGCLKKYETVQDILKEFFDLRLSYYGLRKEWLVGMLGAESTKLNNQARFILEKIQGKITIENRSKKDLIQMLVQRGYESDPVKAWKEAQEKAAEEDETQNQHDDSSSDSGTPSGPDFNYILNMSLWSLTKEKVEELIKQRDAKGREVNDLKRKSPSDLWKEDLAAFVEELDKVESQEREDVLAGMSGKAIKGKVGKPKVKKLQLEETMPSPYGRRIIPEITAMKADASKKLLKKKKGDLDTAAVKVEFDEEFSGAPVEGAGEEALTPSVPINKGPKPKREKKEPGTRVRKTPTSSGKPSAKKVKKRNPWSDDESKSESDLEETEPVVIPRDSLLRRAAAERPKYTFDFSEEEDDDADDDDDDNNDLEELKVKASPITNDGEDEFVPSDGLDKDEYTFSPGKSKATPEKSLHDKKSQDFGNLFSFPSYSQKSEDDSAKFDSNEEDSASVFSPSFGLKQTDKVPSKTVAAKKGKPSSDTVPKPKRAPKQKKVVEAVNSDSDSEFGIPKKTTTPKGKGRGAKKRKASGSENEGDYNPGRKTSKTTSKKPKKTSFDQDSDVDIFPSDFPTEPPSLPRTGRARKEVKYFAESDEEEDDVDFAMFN
Assay: DNA decatenation assay, recombinant TOP2B
Format: biochemical
Condition Details: enzyme expressed in HEK293F, n=3
pIC50: −log10 of the molar value.
Parameter pIC50: see the listing below.

>  <Molecule>
C[C@@H](CN1CC(=O)NC(=O)C1)N1CC(=O)NC(=O)C1 [dexrazoxane]

>  <pIC50>
5.35

$$$$
>  <Molecule>
CCCc1cc(=O)oc2c(C(=O)N3CCCc4ccccc43)c(OC)cc(OC)c12 [BNS-22]

>  <pIC50>
5.40

$$$$
>  <Molecule>
CCCc1cc(=O)oc2c(C(=O)N3CCCc4ccccc43)c(OCCO)ccc12 [5c]

>  <pIC50>
5.84

$$$$
>  <Molecule>
CCCc1cc(=O)oc2c(C(=O)N3CCCc4ccccc43)c(OCCN3CCN(C)CC3)ccc12 [topobexin (9)]

>  <pIC50>
6.72

$$$$

----------
Tested on: neonatal rat ventricular cardiomyocytes (NVCM)
Assay: Protection against DAU-induced cytotoxicity (LDH release) in NVCM
Type: cell-based
Design: key: % of total LDH activity
Condition Details: compound 10 µM + DAU 1.2 µM
Reported Suppl.Fig.3 DAU-induced cytotoxicity (LDH release) in NVCM, mean of independent replicates by item:
Outcome Measure: Suppl.Fig.3 DAU-induced cytotoxicity (LDH release) in NVCM, mean of independent replicates

>  <Compound>
Cc1cc(=O)oc2c(C(=O)N3CCCc4ccccc43)c(O)ccc12 [2a]

>  <Reading>
37.2223

$$$$
>  <Compound>
CCCc1cc(=O)oc2c(C(=O)N3CCCc4ccccc43)c(OCCO)ccc12 [5c]

>  <Reading>
26.8851

$$$$
>  <Compound>
CCCOc1ccc2c(CCC)cc(=O)oc2c1C(=O)N1CCCc2ccccc21 [4c]

>  <Reading>
34.5307

$$$$
>  <Compound>
CCCc1cc(=O)oc2c(C(=O)N3CCCc4ccccc43)c(OC)cc(OC)c12 [BNS-22]

>  <Reading>
23.9768

$$$$
>  <Compound>
CCCCc1cc(=O)oc2c(C(=O)N3CCCc4ccccc43)c(OC)ccc12 [3d]

>  <Reading>
25.0218

$$$$
>  <Compound>
CCCc1cc(=O)oc2c(C(=O)N3CCCc4ccccc43)c(OC)ccc12 [3c]

>  <Reading>
23.4291

$$$$
>  <Compound>
CCc1cc(=O)oc2c(C(=O)N3CCCc4ccccc43)c(OCCO)ccc12 [5b]

>  <Reading>
40.137

$$$$
>  <Compound>
CCCCc1cc(=O)oc2c(C(=O)N3CCCc4ccccc43)c(OCCC)ccc12 [4d]

>  <Reading>
40.2951

$$$$
>  <Compound>
CCCCc1cc(=O)oc2c(C(=O)N3CCCc4ccccc43)c(OCCO)ccc12 [5d]

>  <Reading>
33.3492

$$$$
>  <Compound>
CCCCc1cc(=O)oc2c(C(=O)N3CCCc4ccccc43)c(OC)cc(OC)c12 [1d]

>  <Reading>
34.1459

$$$$
>  <Compound>
CCCc1cc(=O)oc2c(C(=O)N3CCCc4ccccc43)c(O)ccc12 [2c]

>  <Reading>
29.0836

$$$$
>  <Compound>
CCCOc1ccc2c(CC)cc(=O)oc2c1C(=O)N1CCCc2ccccc21 [4b]

>  <Reading>
27.961

$$$$
>  <Compound>
COc1ccc2c(C)cc(=O)oc2c1C(=O)N1CCCc2ccccc21 [3a]

>  <Reading>
36.7927

$$$$
>  <Compound>
CCc1cc(=O)oc2c(C(=O)N3CCCc4ccccc43)c(O)ccc12 [2b]

>  <Reading>
31.7392

$$$$
>  <Compound>
CCc1cc(=O)oc2c(C(=O)N3CCCc4ccccc43)c(OC)ccc12 [3b]

>  <Reading>
31.9857

$$$$
>  <Compound>
CCCOc1ccc2c(C)cc(=O)oc2c1C(=O)N1CCCc2ccccc21 [4a]

>  <Reading>
32.6284

$$$$
>  <Compound>
Cc1cc(=O)oc2c(C(=O)N3CCCc4ccccc43)c(OCCO)ccc12 [5a]

>  <Reading>
46.8582

$$$$
